Molecular target: KRAS G12D (Homo sapiens, UniProt P01116, G12D)
Sequence (P01116 1-188 isoform P01116-2 G12D): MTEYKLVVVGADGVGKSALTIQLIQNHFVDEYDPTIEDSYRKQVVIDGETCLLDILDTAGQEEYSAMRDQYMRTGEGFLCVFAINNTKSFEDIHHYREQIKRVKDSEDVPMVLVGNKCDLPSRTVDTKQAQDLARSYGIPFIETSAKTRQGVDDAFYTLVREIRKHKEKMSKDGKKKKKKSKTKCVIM
Here, each record is paired with measured DC50 data.
Note: unit nM is implicit; provide only the numeric part.

structure-as-smiles	u	DC50
C=C1CN2[C@H](COc3ccc(-c4cn([C@H](C(=O)N5C[C@H](O)C[C@H]5C(=O)N[C@@H](C)c5ccc(-c6scnc6C)cc5)C(C)C)nn4)cn3)CC[C@@]2(COc2nc(N3CCC[C@@](C)(O)C3)c3cnc(-c4cc(O)cc5ccc(F)c(CC)c45)c(F)c3n2)C1	nM	21

Specify DC50 for `CCc1c(F)ccc2cc(O)cc(-c3ncc4c(N5CCC[C@@](C)(O)C5)nc(OCC5(CN6CCC(c7ccc(-c8cn([C@H](C(=O)N9C[C@H](O)C[C@H]9C(=O)N[C@@H](C)c9ccc(-c%10scnc%10C)cc9)C(C)C)nn8)cn7)CC6)CC5)nc4c3F)c12` and stop.
14

----------
Tested on: PK59
Experiment: Cell proliferation experiment (CellTiter-Glo)
Assay type: cell-based
Conditions: PK-59; PK59, KRAS mutation type G12D; 96 h incubation
readout-label: IC50 (nM)
Note: unit nM is implicit; provide only the numeric part.

// worked examples, IC50 included
compound	IC50, nM
CCc1c(F)ccc2cc(O)cc(-c3ncc4c(N5CCC[C@@](C)(O)C5)nc(OCC5(CN6CCC(Oc7ccc(-c8cn([C@H](C(=O)N9C[C@H](O)C[C@H]9C(=O)N[C@@H](CO)c9ccc(-c%10ccnn%10CC)cc9)C(C)C)nn8)cn7)CC6)CC5)nc4c3F)c12 [Compound 160]	19.5
CCc1c(F)ccc2cc(O)cc(-c3ncc4c(N5CCC[C@@](C)(O)C5)nc(OCC5(CN6CCC(Oc7ccc(-c8cn([C@H](C(=O)N9C[C@H](O)C[C@H]9C(=O)N[C@@H](C)c9ccc(-c%10scnc%10C)cc9)C(C)C)nn8)nc7)CC6)CC5)nc4c3F)c12 [Compound 117]	18.5

Consider the compound CCc1c(F)ccc2cc(O)cc(-c3ncc4c(N5CCC[C@@](C)(O)C5)nc(OCC5(CN6CCC7(CC6)CN(c6ccc(-c8cn([C@H](C(=O)N9C[C@H](O)C[C@H]9C(=O)N[C@@H](C)c9ccc(-c%10scnc%10C)cc9)C(C)C)nn8)cn6)C7)CC5)nc4c3F)c12 [Compound 118] tested on PK59; state its IC50.
12.2

Consider the compound CCc1c(F)ccc2cc(O)cc(-c3ncc4c(N5CCC[C@@](C)(O)C5)nc(OCC5(CN6CCC(Oc7ccc(-c8cn([C@H](C(=O)N9C[C@H](O)C[C@H]9C(=O)N[C@@H](C)c9ccc(-c%10scnc%10C)cc9)C(C)C)nn8)cn7)CC6)CC5)nc4c3F)c12 [Compound 135] tested on PK59; state its IC50.
14.7

Consider the compound CCc1c(F)ccc2cc(O)cc(-c3ncc4c(N5CCC[C@@](C)(O)C5)nc(OCC5(CN6CCN(C78CC(c9cn([C@H](C(=O)N%10C[C@H](O)C[C@H]%10C(=O)N[C@@H](C)c%10ccc(-c%11scnc%11C)cc%10)C(C)C)nn9)(C7)C8)CC6)CC5)nc4c3F)c12 [Compound 149] tested on PK59; state its IC50.
57

Consider the compound CCc1c(F)ccc2cc(O)cc(-c3ncc4c(N5CCC[C@@](C)(O)C5)nc(OCC5(CN6CCC(Oc7cnc(-c8cn([C@H](C(=O)N9C[C@H](O)C[C@H]9C(=O)N[C@@H](C)c9ccc(-c%10scnc%10C)cc9)C(C)C)nn8)cn7)CC6)CC5)nc4c3F)c12 [Compound 144] tested on PK59; state its IC50.
4.4
